Experiment: Drug level in Wistar rat serum at 50 mg/kg, po measured at 4 hrs
Assay Readout: log10(concentration at 4 h) (log10 of the value in ng/mL)
Note: values are log10 of concentration at 4 h expressed in ng/mL.

Task item: # get_value(readout='log10(concentration at 4 h)', item= COn1cc(C(=O)O)c(=O)c2cc3c(cc21)CCO3 )
Reply: 3.23

Task item: # get_value(readout='log10(concentration at 4 h)', item= COn1cc(C(=O)O)c(=O)c2c3sc(=O)n(C)c3ccc21 )
Reply: 3.28

====

Test: Drug level in Wistar rat serum at 50 mg/kg, po measured at 2 hrs
Documented log10 of concentration at 2 h across a set of compounds
Note: values are log10 of concentration at 2 h expressed in ng/mL.

Task item: # get_value(readout='log10 of concentration at 2 h', item= COn1cc(C(=O)O)c(=O)c2cc3c(cc21)CCO3 )
Reply: 3.60

Task item: # get_value(readout='log10 of concentration at 2 h', item= COn1cc(C(=O)O)c(=O)c2c3sc(=O)n(C)c3ccc21 )
Reply: 3.57

Task item: # get_value(readout='log10 of concentration at 2 h', item= CCn1cc(C(=O)O)c(=O)c2cc3c(cc21)OCO3 )
Reply: 3.67

Task item: # get_value(readout='log10 of concentration at 2 h', item= CCn1cc(C(=O)O)c(=O)c2c3sc(=O)n(C)c3ccc21 )
Reply: 2.51

Task item: # get_value(readout='log10 of concentration at 2 h', item= COn1cc(C(=O)O)c(=O)c2cc3c(cc21)OCO3 )
Reply: 4.35

====

Documented concentration at 0.5 h across a set of molecules
Experiment: Drug level in Wistar rat serum at 50 mg/kg, po measured at 0.5 hr
State just the number; it will be interpreted in ng/mL.

Here are 4 molecules together with their reported answers.
smiles_representation=COn1cc(C(=O)O)c(=O)c2c3sc(=O)n(C)c3ccc21 endpoint_value=2900
smiles_representation=CCn1cc(C(=O)O)c(=O)c2c3sc(=O)n(C)c3ccc21 endpoint_value=300
smiles_representation=CCn1cc(C(=O)O)c(=O)c2cc3c(cc21)OCO3 endpoint_value=700
smiles_representation=COn1cc(C(=O)O)c(=O)c2cc3c(cc21)OCO3 endpoint_value=11600

Kindly consider the entry below.
Task item: # get_value(readout='concentration at 0.5 h', item= COn1cc(C(=O)O)c(=O)c2cc3c(cc21)CCO3 )
Reply: 6200

====

Experiment: Drug recovery in Wistar rat urine at 50 mg/kg, po measured over 24 hrs
Assay Readout: dose excreted at 24 h (%)
State just the number; it will be interpreted in %.

Here are 4 compounds together with their reported answers.
smiles_representation=CCn1cc(C(=O)O)c(=O)c2cc3c(cc21)OCO3 unit_abbreviation=% endpoint_value=2.4
smiles_representation=COn1cc(C(=O)O)c(=O)c2cc3c(cc21)OCO3 unit_abbreviation=% endpoint_value=7.5
smiles_representation=COn1cc(C(=O)O)c(=O)c2c3sc(=O)n(C)c3ccc21 unit_abbreviation=% endpoint_value=1.8
smiles_representation=COn1cc(C(=O)O)c(=O)c2cc3c(cc21)CCO3 unit_abbreviation=% endpoint_value=11

Kindly consider the entry below.
Task item: # get_value(readout='dose excreted at 24 h', item= CCn1cc(C(=O)O)c(=O)c2c3sc(=O)n(C)c3ccc21 )
Reply: 0.3

====

System: Staphylococcus aureus
Experiment: microbe, parasite or virus in culture
Assay type: functional
Conditions: 209P, 24 h
Description: Antibacterial activity against Staphylococcus aureus 209P after 24 hrs by twofold dilution assay
Assay Readout: MIC (µg/mL)
State just the number; it will be interpreted in µg/mL.

smiles_representation=CCn1cc(C(=O)O)c(=O)c2c3sc(=O)n(C)c3ccc21 assay_readout=MIC unit_abbreviation=µg/mL endpoint_value=3.13
smiles_representation=CCn1cc(C(=O)O)c(=O)c2cc3c(cc21)OCO3 assay_readout=MIC unit_abbreviation=µg/mL endpoint_value=3.13
smiles_representation=COn1cc(C(=O)O)c(=O)c2cc3c(cc21)CCO3 assay_readout=MIC unit_abbreviation=µg/mL endpoint_value=6.25
smiles_representation=COn1cc(C(=O)O)c(=O)c2c3sc(=O)n(C)c3ccc21 assay_readout=MIC unit_abbreviation=µg/mL endpoint_value=6.25
smiles_representation=COn1cc(C(=O)O)c(=O)c2ccc3c(c21)CCC3 assay_readout=MIC unit_abbreviation=µg/mL endpoint_value=25

Task item: # get_value(readout='MIC', item= CCCOn1cc(C(=O)O)c(=O)c2cc3c(cc21)OCO3 )
Reply: 50

Task item: # get_value(readout='MIC', item= C=CCOn1cc(C(=O)O)c(=O)c2c3sc(=O)n(CC=C)c3ccc21 )
Reply: 50

Task item: # get_value(readout='MIC', item= COn1cc(C(=O)O)c(=O)c2cc3c(cc21)OCO3 )
Reply: 6.25

Task item: # get_value(readout='MIC', item= C=CCOn1cc(C(=O)O)c(=O)c2cc3c(cc21)OCO3 )
Reply: 12.5

====

Test: Drug level in Wistar rat serum at 50 mg/kg, po measured at 1 hr
Documented log10(concentration at 1 h) across a set of compounds
Note: values are log10 of concentration at 1 h expressed in ng/mL.

Task item: # get_value(readout='log10(concentration at 1 h)', item= COn1cc(C(=O)O)c(=O)c2c3sc(=O)n(C)c3ccc21 )
Reply: 3.65

Task item: # get_value(readout='log10(concentration at 1 h)', item= CCn1cc(C(=O)O)c(=O)c2cc3c(cc21)OCO3 )
Reply: 3.18

Task item: # get_value(readout='log10(concentration at 1 h)', item= COn1cc(C(=O)O)c(=O)c2cc3c(cc21)CCO3 )
Reply: 3.67

Task item: # get_value(readout='log10(concentration at 1 h)', item= CCn1cc(C(=O)O)c(=O)c2c3sc(=O)n(C)c3ccc21 )
Reply: 2.56

Task item: # get_value(readout='log10(concentration at 1 h)', item= COn1cc(C(=O)O)c(=O)c2cc3c(cc21)OCO3 )
Reply: 4.44

====

Experiment: Drug level in Wistar rat serum at 50 mg/kg, po measured at 4 hrs
Assay Readout: concentration at 4 h (ng/mL)
State just the number; it will be interpreted in ng/mL.

Here are 2 molecules together with their reported answers.
molecule="COn1cc(C(=O)O)c(=O)c2cc3c(cc21)OCO3 [MILOXACIN]" endpoint_value=19500
molecule="CCn1cc(C(=O)O)c(=O)c2cc3c(cc21)OCO3 [OXOLINIC ACID]" endpoint_value=4800

Kindly consider the entry below.
Task item: # get_value(readout='concentration at 4 h', item= CCn1cc(C(=O)O)c(=O)c2c3sc(=O)n(C)c3ccc21 [TIOXACIN] )
Reply: 450

====

Documented MIC across a set of compounds
Tested on: Staphylococcus aureus
Experiment: microbe, parasite or virus in culture
Assay type: functional
Settings: 209P, 24 h

Here are 6 compounds together with their reported answers.
smiles_representation=C=CCOn1cc(C(=O)O)c(=O)c2c3c(ccc21)OCOC3 endpoint_value="> 50 µg/mL"
smiles_representation=O=C(O)c1cn(OCc2ccccc2)c2ccc3c(sc(=O)n3Cc3ccccc3)c2c1=O endpoint_value="> 1.56 µg/mL"
smiles_representation=CCOn1cc(C(=O)O)c(=O)c2cc3c(cc21)OCO3 endpoint_value="25 µg/mL"
smiles_representation=CCn1cc(C(=O)O)c(=O)c2ccc3c(c21)CCC3 endpoint_value="3.13 µg/mL"
smiles_representation=CCn1cc(C(=O)O)c(=O)c2c3c(ccc21)OCOC3 endpoint_value="3.13 µg/mL"
smiles_representation=CC(C)On1cc(C(=O)O)c(=O)c2cc3c(cc21)OCO3 endpoint_value="25 µg/mL"

Task item: # get_value(readout='MIC', item= O=C(O)c1cn(OCC2CC2)c2cc3c(cc2c1=O)OCO3 )
Reply: 50 µg/mL

Task item: # get_value(readout='MIC', item= COn1cc(C(=O)O)c(=O)c2c3c(ccc21)OCC3 )
Reply: 50 µg/mL

Task item: # get_value(readout='MIC', item= O=C(O)c1cn(OCCO)c2cc3c(cc2c1=O)OCO3 )
Reply: 100 µg/mL

Task item: # get_value(readout='MIC', item= COn1cc(C(=O)O)c(=O)c2c3c(ccc21)OCOC3 )
Reply: 25 µg/mL
